- System: Canada thistle (Cirsium arvense)
- assay_explanation: Test C postemergence, plant response rating
- Format: in vivo
- experimental_parameters: 16 g ai/ha, scale of 0 to 100
measured_endpoint: Plant response rating, Canada Thistle
The reply should be a number, written without any unit.

For orientation, consider the following solved cases.
N#Cc1cccc(Oc2ncc(Cl)cn2)c1COCCC(F)(F)F [Compound 80] ... 75
CCCCC(=O)c1c(Oc2ncc(Cl)cn2)cccc1C(F)(F)F [Compound 130] ... 75

Fill in the blank: the reported Plant response rating, Canada Thistle of O=C(CCC(F)(F)F)c1c(Cl)cccc1Oc1ncc(Cl)cn1 [Compound 107] is ____.
80

Form field: reported Plant response rating, Canada Thistle of N#CC(CCCC(F)(F)F)c1ccccc1Oc1ncc(Cl)cn1 (stereo not drawn) [Compound 144]
90

Which Plant response rating, Canada Thistle value is on record for O=C(CCCC(F)(F)F)c1c(Oc2ncc(Cl)cn2)cccc1C(F)(F)F [Compound 125] ?
80

If you can, please state the reported Plant response rating, Canada Thistle value of O=C(CCCCC(F)(F)F)c1c(Br)cccc1Oc1ncc(Cl)cn1 [Compound 82] .
85

###

We begin with a simple list: items and their reported Blackgrass plant response rating.
- System: blackgrass (Alopecurus myosuroides)
- assay_explanation: Test C postemergence, plant response rating
- Assay type: in vivo
- experimental_parameters: 62 g ai/ha, scale 0 to 100 (0 no effect, 100 complete control)
Enter a number only.

N#Cc1cccc(Oc2ncc(Cl)cn2)c1COCCC(F)(F)F [Compound 80] ... 5
FC(F)(F)CCCCc1c(Br)cccc1Oc1ncc(Cl)cn1 [Compound 138] ... 10
O=C(CCCC(F)(F)F)c1c(Br)cccc1Oc1ncc(Cl)cn1 [Compound 77] ... 20
O=C(CCCC(F)(F)F)c1c(Cl)cccc1Oc1ncc(Cl)cn1 [Compound 143] ... 15
N#CCCOC(=O)c1c(Br)cccc1Oc1ncc(Cl)cn1 [Compound 7] ... 0

Now for the compound whose Blackgrass plant response rating we want.
# get_value(readout='Blackgrass plant response rating', item= O=C(CCCC(F)(F)F)c1c(Oc2ncc(Cl)cn2)cccc1C(F)(F)F [Compound 125] )
15

###

# Plant response rating, Crabgrass, Large values compiled below
- Test system: crabgrass, large (large crabgrass, Digitaria sanguinalis)
- assay_explanation: Test C preemergence, plant response rating
- Format: in vivo
- experimental_parameters: Preemergence, 125 g ai/ha; scale of 0 to 100
Number only, please.

FC(F)(F)CCCc1c(Br)cccc1Oc1ncc(Cl)cn1 ... 98
CCCC(=O)c1c(Oc2ncc(Cl)cn2)cccc1C(F)(F)F ... 100
C=C(Br)COC(=O)c1c(Br)cccc1Oc1ncc(Cl)cn1 ... 90
CCCCC(=O)c1c(Br)cccc1Oc1ncc(Cl)cn1 ... 98
CCCC(=O)c1c(Br)cccc1Oc1ncc(Cl)cn1 ... 98

Could you share which Plant response rating, Crabgrass, Large value was measured for `N#Cc1cccc(Oc2ncc(Cl)cn2)c1COCCC(F)(F)F` ?
98

###

- System: ragweed (common ragweed, Ambrosia elatior)
- assay_explanation: Test A preemergence, visual injury rating
- Assay type: in vivo
- experimental_parameters: 500 g ai/ha, 0 to 100 scale (0 no effect, 100 complete control)
measured_endpoint: Ragweed plant response rating
Give the value as a plain number.

O=Cc1c(Cl)cccc1Oc1ncc(Cl)cn1 ... 0

Query the reported Ragweed plant response rating for ragweed (common ragweed, Ambrosia elatior); item: `O=C(SCC(F)(F)F)c1c(Br)cccc1Oc1ncc(Cl)cn1`
0

Please provide the recorded Ragweed plant response rating for `N#CCCOC(=O)c1c(Br)cccc1Oc1ncc(Cl)cn1` , tested on ragweed (common ragweed, Ambrosia elatior).
50

Recorded Ragweed plant response rating for `O=C(OCC1CCC1)c1c(Br)cccc1Oc1ncc(Cl)cn1` with ragweed (common ragweed, Ambrosia elatior), please?
0

Notebook entry, ragweed (common ragweed, Ambrosia elatior) assay: Ragweed plant response rating of `CN(OCC(F)(F)F)C(=O)c1c(Br)cccc1Oc1ncc(Cl)cn1` = ?
0

###

Documented Plant response rating, Soybean across a set of compounds
- Tested on: soybean (Glycine max)
- assay_explanation: Test C preemergence, plant response rating
- Assay type: in vivo
- experimental_parameters: Preemergence; 62 g ai/ha; scale 0 to 100
- Text: […]
# print the numeric value only

N#Cc1cccc(Oc2ncc(Cl)cn2)c1COCCC(F)(F)F [Compound 80] ... 40

GET /values?readout=Plant response rating, Soybean&item= C=C(Br)COC(=O)c1c(Br)cccc1Oc1ncc(Cl)cn1 [Compound 61]
20

###

- Test system: blackgrass (Alopecurus myosuroides)
- assay_explanation: Test C postemergence, plant response rating
- Assay type: in vivo
- experimental_parameters: 16 g ai/ha, scale 0 to 100
measured_endpoint: Plant response rating, Blackgrass
Provide a numeric answer; units are not to be included.

Solved cases below.
FC(F)(F)CCCCc1c(Br)cccc1Oc1ncc(Cl)cn1 ... 5
FC(F)(F)CCCCc1c(Cl)cccc1Oc1ncc(Cl)cn1 ... 5
O=C(CCCC(F)(F)F)c1c(Oc2ncc(Cl)cn2)cccc1C(F)(F)F ... 10
O=C(CCC(F)(F)C(F)(F)F)c1c(Br)cccc1Oc1ncc(Cl)cn1 ... 10

Attention now turns to another entry.
Which Plant response rating, Blackgrass reading was recorded for the compound `FC(F)(F)CCCc1c(Br)cccc1Oc1ncc(Cl)cn1` ?
10

###

- Test system: soybean (Glycine max)
- assay_explanation: Test C postemergence, plant response rating
- Assay type: in vivo
- experimental_parameters: Glycine max, post-emergence, 16 g ai/ha, scale 0 to 100
# maps each entry to its plant injury at 16 g/ha
Enter your answer as a number in %; do not include the unit.

O=C(OCC(F)(F)C(F)(F)F)c1c(Br)cccc1Oc1ncc(Cl)cn1 ... 20
C=CCOC(=O)c1c(Br)cccc1Oc1ncc(Cl)cn1 ... 40

What value of measured plant injury at 16 g/ha is listed for `N#Cc1cccc(Oc2ncc(Cl)cn2)c1CCCCC(F)(F)F` ?
45

Please look up its plant injury at 16 g/ha: `CCCOC(=O)c1c(Br)cccc1Oc1ncc(Cl)cn1`
30

###

- System: pigweed (Amaranthus retroflexus)
- assay_explanation: Test A postemergence, visual injury rating
- Type: in vivo
- experimental_parameters: 31 g ai/ha, 0 to 100 scale, 0 is no effect, 100 is complete control, approximately 10 days
measured_endpoint: Pigweed plant response rating
// response body must contain only the number

In the examples that follow, each entry is paired with its recorded Pigweed plant response rating.
CC(=NOC(C)C)c1c(Br)cccc1Oc1ncc(Cl)cn1 ... 10
CCCCCOC(=O)c1c(Br)cccc1Oc1ncc(Cl)cn1 ... 20
N#Cc1cccc(Oc2ncc(Cl)cn2)c1COCCC(F)(F)F ... 80

Provide the documented Pigweed plant response rating with pigweed (Amaranthus retroflexus) as the system for `CCCCCc1c(C#N)cccc1Oc1ncc(Cl)cn1`
40

Provide the documented Pigweed plant response rating with pigweed (Amaranthus retroflexus) as the system for `N#Cc1cccc(Oc2ncc(Cl)cn2)c1C(=O)CCCCC(F)(F)F`
20

Could you share what Pigweed plant response rating was measured for `C=C(C)CCOC(=O)c1c(Br)cccc1Oc1ncc(Cl)cn1` , tested on pigweed (Amaranthus retroflexus)?
10

###

- Test system: Italian ryegrass (Lolium multiflorum)
- assay_explanation: Test A preemergence, visual injury rating
- Assay type: in vivo
- experimental_parameters: 500 g ai/ha, 0 to 100 scale (0 no effect, 100 complete control)
Recorded Ryegrass, Italian plant response rating, one value per entry.
Simply state the number, no unit and no words.

Below are worked cases with known answers.
CC(C)=CCOC(=O)c1c(Br)cccc1Oc1ncc(Cl)cn1 ... 0
O=C(OCC(F)(F)F)c1c(F)cccc1Oc1ncc(Br)cn1 ... 0

Can you look up the measured Ryegrass, Italian plant response rating of `N#Cc1cnc(Oc2cccc(Br)c2C(=O)OCC(F)(F)F)nc1` for me?
0

What does the data say about its Ryegrass, Italian plant response rating? Entry: `CCOCc1c(Br)cccc1Oc1ncc(Cl)cn1`
10

// lookup Ryegrass, Italian plant response rating for `O=C(SCC(F)(F)F)c1c(Br)cccc1Oc1ncc(Cl)cn1`
0

What value of measured Ryegrass, Italian plant response rating is listed for `O=C(OCC1CCCC1)c1c(Br)cccc1Oc1ncc(Cl)cn1` ?
70

###

- System: pigweed, palmer (palmer pigweed, Amaranthus palmeri)
- assay_explanation: Test C postemergence, plant response rating
- Type: in vivo
- experimental_parameters: 125 g ai/ha, scale 0 to 100 (0 no effect, 100 complete control)
measured_endpoint: Pigweed, Palmer plant response rating
Simply state the number, no unit and no words.

Examples from the recorded data:
CCCC(=O)c1c(Oc2ncc(Cl)cn2)cccc1C(F)(F)F ... 70
FC(F)(F)CCCCc1c(Cl)cccc1Oc1ncc(Cl)cn1 ... 70
CCCCC(=O)c1c(Oc2ncc(Cl)cn2)cccc1C(F)(F)F ... 65
N#Cc1cccc(Oc2ncc(Cl)cn2)c1COCCC(F)(F)F ... 60
O=C(CCCCC(F)(F)F)c1c(Br)cccc1Oc1ncc(Cl)cn1 ... 98

API: the following record is the query input.
Which measured Pigweed, Palmer plant response rating value corresponds to `FC(F)(F)CCCc1c(Br)cccc1Oc1ncc(Cl)cn1` ?
85
